# Test system: SW480
# Assay Details: Antiproliferative activity against human SW480 cells assessed as reduction in cell growth after 72 hrs by MTT assay
# Assay type: functional, cell-based
# Study Conditions: SW480, 72 h
Quantity: IC50 (µM)

> print(dat)
                                        smi  endpoint.value
1  C=C1C(=O)[C@@]23C(=O)OC[C@]4(C=CCC(C)(C)[C@H]4C=O)[C@@H]2CC[C@@H]1[C@H]3OC(=O)/C=C/C             3.8
2  C=C1C(=O)[C@@]23C(=O)OC[C@]4(C=CCC(C)(C)[C@H]4C=O)[C@@H]2CC[C@@H]1[C@H]3OC(=O)/C=C/c1ccsc1            3.27
3  C=C1C(=O)[C@@]23C(=O)O[C@H]4CCC(C)(C)[C@H]5C(=O)OC[C@]45[C@H]2CC[C@@H]1[C@H]3OC(=O)/C=C/c1cncnc1            1.02

====

# Tested on: SW480
# Assay Details: Antiproliferative activity against human SW480 cells assessed as reduction in cell growth after 72 hrs by MTT assay
# Type: functional, cell-based
# Study Conditions: SW480, 72 h
Flag rule - IC50 less than 2000 nM flags met; the remaining entries get not met.

> print(dat)
                                        smi  assigned.label
1  C=C1C(=O)[C@@]23C(=O)OC[C@]4(C=CCC(C)(C)[C@H]4C=O)[C@@H]2CC[C@@H]1[C@H]3OC(=O)/C=C/c1ccncc1F             met
2  C=C1C(=O)[C@@]23C(=O)OC[C@]4(C=CCC(C)(C)[C@H]4C=O)[C@@H]2CC[C@@H]1[C@H]3OC(=O)/C=C/c1ccc2ccccc2c1         not met
3  C=C1C(=O)[C@@]23C(=O)OC[C@]4(C=CCC(C)(C)[C@H]4C=O)[C@@H]2CC[C@@H]1[C@H]3OC(=O)/C=C/c1ccco1         not met
4  C=C1C(=O)[C@@]23C(=O)OC[C@]4(C=CCC(C)(C)[C@H]4C=O)[C@@H]2CC[C@@H]1[C@H]3OC(=O)/C=C/c1cncnc1             met
5  C=C1C(=O)[C@@]23C(=O)OC[C@]4(C=CCC(C)(C)[C@H]4C=O)[C@@H]2CC[C@@H]1[C@H]3O         not met
6  C=C1C(=O)[C@@]23C(=O)OC[C@]4(C=CCC(C)(C)[C@H]4C=O)[C@@H]2CC[C@@H]1[C@H]3OC(=O)/C=C/c1ccnc(F)c1             met

====

# Tested on: MDA-MB-231
# Assay Details: Antiproliferative activity against human MDA-MB-231 cells assessed as reduction in cell growth after 72 hrs by MTT assay
# Type: functional, cell-based
# Study Conditions: MDA-MB-231, 72 h
pIC50: −log10 of the molar value.
# pIC50 per record follows
Quantity: pIC50

> print(dat)
                                        smi  endpoint.value
1  C=C1C(=O)[C@@]23C(=O)OC[C@]4(C=CCC(C)(C)[C@H]4C=O)[C@@H]2CC[C@@H]1[C@H]3OC(=O)/C=C/C            5.29
2  C=C1C(=O)[C@@]23C(=O)O[C@H]4CCC(C)(C)[C@H]5C(=O)OC[C@]45[C@H]2CC[C@@H]1[C@H]3OC(=O)/C=C/c1ccnc(OC)c1            6.08
3  C=C1C(=O)[C@@]23C(=O)OC[C@]4(C=CCC(C)(C)[C@H]4C=O)[C@@H]2CC[C@@H]1[C@H]3OC(=O)/C=C/c1ccc2ccccc2n1            5.29
4  C=C1C(=O)[C@@]23C(=O)OC[C@]4(C=CCC(C)(C)[C@H]4C=O)[C@@H]2CC[C@@H]1[C@H]3OC(=O)/C=C/c1ccc[nH]1            5.40
5  C=C1C(=O)[C@@]23C(=O)OC[C@]4(C=CCC(C)(C)[C@H]4C=O)[C@@H]2CC[C@@H]1[C@H]3OC(=O)/C=C/c1ccc2ccccc2c1            5.61
6  C=C1C(=O)[C@@]23C(=O)OC[C@]4(C=CCC(C)(C)[C@H]4C=O)[C@@H]2CC[C@@H]1[C@H]3OC(=O)/C=C/c1ccco1            5.53
